System: EGFR WT dependent A431 cells
TEST NAME: Tumor cell line proliferation assay, EGFR WT dependent A431 cells, CellTiter-Glo
Type: cell-based
STATED CONDITIONS: Homo sapiens, A-431, 72 h, read-out: GI50 A431 EGFR wt amp.
READOUT LABEL: GI50 (µM)

Solved entries (count: 6):
COMPOUND	VALUE
C=CC(=O)N1CC(Nc2ncc3ncnc(Nc4ccc(Oc5ccn6ncnc6c5)c(C)c4)c3n2)C1 [Example I-19]	0.752
C=CC(=O)NC1CN(c2ncc3ncnc(Nc4ccc(Oc5ccc6c(c5)ncn6C)c(Cl)c4)c3n2)C1 [Example I-08]	1.5
C=CC(=O)N1CCC[C@@H](n2nc(-c3ccc(Oc4ccccc4)cc3)c3c(N)ncnc32)C1 [Ibrutinib, reference compound]	0.199
C#Cc1cc(Nc2ncnc3cnc(NC4CCN(C(=O)C=C)CC4)nc23)ccc1Oc1ccc2c(c1)ncn2C [Example I-15]	0.948
CCOc1cc2ncc(C#N)c(Nc3ccc(OCc4ccccn4)c(Cl)c3)c2cc1NC(=O)/C=C/CN(C)C [Neratinib, reference compound]	0.055
C=CC(=O)N1CCC(Oc2cc3c(Nc4ccc(Cl)c(Cl)c4F)ncnc3cc2OC)CC1 [Poziotinib, reference compound]	0.001

P. C=CC(=O)N1CCC(Nc2ncc3ncnc(Nc4ccc(Oc5ccn6ncnc6c5)c(C)c4)c3n2)CC1 [Example I-16]
Q. Cc1cc(Nc2ncnc3ccc(NC4=NC(C)(C)CO4)cc23)ccc1Oc1ccn2ncnc2c1 [Tucatinib, reference compound]
Task: Hi, I'm comparing P with Q and wondering which one has the bigger number for GI50. Any idea? Write the label of whichever entry you select.
Result: Q
(Q: 4.22 µM, P: 0.66 µM)

A. C=CC(=O)Nc1ccc2ncnc(Nc3ccc(OCc4cccc(F)c4)c(Cl)c3)c2c1 [Allitinib, reference compound]
B. C=CC(=O)Nc1cccc(-n2c(=O)c(Oc3ccc(F)cc3F)cc3cnc(Nc4cnn(C)c4)nc32)c1 [WO 2019/046775 Comp. 2, reference compound]
C. C#Cc1cc(Nc2ncnc3cnc(N4CC(NC(=O)C=C)C4)nc23)ccc1Oc1ccn2ncnc2c1 [Example I-10]
Task: Arrange the 3 entries by GI50 so the values rise. Put the labels in the requested order and write them down.
Result: B, A, C
